Items are presented alongside their recorded Activity.
tested on: Rattus norvegicus; experiment: Reduction in heart rate in normotensive anaesthetized Wistar rat at 10 mg/kg, iv; design: scale not given: the % may be the effect or the level left
Measurement label: Activity (%)

* CC1CN/C(=N\c2ccc3c(c2)CCC3)C1.Cl (stereo not given) | 4
* Cc1ccc(F)c(/N=C2\CCC(C)N2)c1.Cl (stereo not given) | 6
* Cc1cccc(C)c1/N=C1/CCC(C)N1.Cl (stereo not given) | 4
* CC1CC/C(=N/c2ccc(Cl)c3c2CCC3)N1.Cl (stereo not given) | 7
* Cc1cc(F)ccc1/N=C1\CCC(C)N1.Cl (stereo not given) | 8
* CC1CN/C(=N\c2cccc3c2CCCC3)C1.Cl (stereo not given) | 3
* CC1CC/C(=N/c2cccc3c2CCC3)N1.Cl (stereo not given) | 20
* Cc1c(Cl)cccc1/N=C1\CCC(C)N1.Cl (stereo not given) | 20
* Cc1ccc(/N=C2/CC(C)CN2)c2c1CCC2.Cl (stereo not given) | 22
* CC1CC/C(=N/c2cc3c(cc2Cl)CCC3)N1.Cl (stereo not given) | 3
* Cc1cccc(/N=C2\CCC(C)N2)c1C.Cl (stereo not given) | 18
* CC1CC/C(=N/c2cccc3c2CCCC3)N1.Cl (stereo not given) | 26
* Cc1ccc(Cl)c(/N=C2\CCC(C)N2)c1.Cl (stereo not given) | 7
* CC1CN/C(=N\c2ccc(Cl)c3c2CCC3)C1.Cl (stereo not given) | 6
* CC1CC/C(=N/c2ccc3c(c2)CCC3)N1.Cl (stereo not given) | 4

----------
molecular target: Nischarin (Rattus norvegicus, UniProt Q4G017); assay: Displacement of [125I] PIC from I1 imidazoline receptor in rat PC12 cells after 45 mins by gamma counting; type: cell-based, PC-12; settings: read-out: Ki
Sequence (Q4G017 whole entry): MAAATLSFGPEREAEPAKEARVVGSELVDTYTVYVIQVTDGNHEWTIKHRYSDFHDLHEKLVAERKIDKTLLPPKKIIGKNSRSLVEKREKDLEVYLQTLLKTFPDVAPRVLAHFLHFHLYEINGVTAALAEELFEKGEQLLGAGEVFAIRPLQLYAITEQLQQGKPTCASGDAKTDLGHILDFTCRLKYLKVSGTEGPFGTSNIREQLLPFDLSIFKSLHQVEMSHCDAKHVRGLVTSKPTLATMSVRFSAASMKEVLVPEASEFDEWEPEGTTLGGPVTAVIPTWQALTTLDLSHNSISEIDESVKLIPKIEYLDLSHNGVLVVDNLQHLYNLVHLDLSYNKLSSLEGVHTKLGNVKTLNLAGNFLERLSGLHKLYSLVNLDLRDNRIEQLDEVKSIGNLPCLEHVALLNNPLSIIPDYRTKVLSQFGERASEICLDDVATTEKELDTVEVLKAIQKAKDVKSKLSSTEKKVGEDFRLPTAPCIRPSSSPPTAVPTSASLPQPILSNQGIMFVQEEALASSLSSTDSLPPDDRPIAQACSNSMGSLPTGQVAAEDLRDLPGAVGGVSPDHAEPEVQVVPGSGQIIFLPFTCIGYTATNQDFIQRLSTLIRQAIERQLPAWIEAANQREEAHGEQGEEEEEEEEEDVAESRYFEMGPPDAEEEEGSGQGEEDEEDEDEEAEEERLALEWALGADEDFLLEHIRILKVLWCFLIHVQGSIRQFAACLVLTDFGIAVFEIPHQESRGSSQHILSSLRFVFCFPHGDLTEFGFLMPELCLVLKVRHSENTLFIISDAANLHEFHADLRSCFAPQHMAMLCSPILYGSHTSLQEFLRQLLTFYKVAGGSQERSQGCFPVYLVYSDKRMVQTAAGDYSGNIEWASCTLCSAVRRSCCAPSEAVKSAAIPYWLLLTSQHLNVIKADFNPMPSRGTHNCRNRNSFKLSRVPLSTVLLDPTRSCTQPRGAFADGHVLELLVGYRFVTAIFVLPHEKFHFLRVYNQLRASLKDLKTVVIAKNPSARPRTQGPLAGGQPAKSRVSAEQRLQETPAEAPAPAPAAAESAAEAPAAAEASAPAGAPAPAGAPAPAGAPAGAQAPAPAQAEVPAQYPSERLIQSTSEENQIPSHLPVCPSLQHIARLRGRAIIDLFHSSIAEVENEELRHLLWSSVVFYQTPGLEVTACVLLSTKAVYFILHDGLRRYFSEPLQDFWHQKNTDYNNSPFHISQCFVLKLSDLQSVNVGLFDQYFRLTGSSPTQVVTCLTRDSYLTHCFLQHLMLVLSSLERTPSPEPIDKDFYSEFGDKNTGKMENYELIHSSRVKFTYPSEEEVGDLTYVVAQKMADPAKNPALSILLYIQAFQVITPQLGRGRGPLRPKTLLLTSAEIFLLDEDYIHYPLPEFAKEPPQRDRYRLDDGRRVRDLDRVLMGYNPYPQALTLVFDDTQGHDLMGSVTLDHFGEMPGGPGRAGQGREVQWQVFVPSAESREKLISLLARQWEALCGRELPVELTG
pKi: −log10 of the molar value.
Measurement label: pKi

• CC1CN=C(Nc2ccc(Cl)c3c2CCC3)C1 (centres undefined) = 9.66
• Cc1cccc(/N=C2\CC(C)CN2)c1C.Cl (centres undefined) = 7.38
• COc1nc(C)nc(Cl)c1N=C1NCCN1 [MOXONIDINE] = 7.11
• NC1=NCC(COc2ccccc2Br)O1 (centres undefined) = 8.19
• Cc1ccc(F)c(C2=NCCN2)c1 = 8.28
• Cc1c(Cl)cccc1NC1=NCC(C)C1 (centres undefined) = 8.49
• CC1CC/C(=N\c2cc(N=[N+]=[N-])c(I)cc2Cl)N1 (centres undefined) = 8.22
• CC1CN/C(=N\c2cccc3c2CCC3)C1.Cl (centres undefined) = 7.72
• CC1CC/C(=N/c2cccc3c2CCCC3)N1.Cl (centres undefined) = 7.14

----------
target: Nischarin (Rattus norvegicus, UniProt Q4G017); assay: Displacement of [125I] PIC from I1 imidazoline receptor in rat PC12 cells after 45 mins by gamma counting; assay type: cell-based, PC-12
Measurement label: Ki (nM)

- CC1CC(NC(C2CC2)C2CC2)=NC1C (stereo unspecified): 537

----------
Items are presented alongside their recorded Ki.
biological target: Adrenergic receptor alpha-2 (Homo sapiens, UniProt P08913+P18825+P18089); test: Displacement of [3H]RX821002 from human alpha2 adrenoceptor expressed in CHO cell membranes after 60 mins; type: cell-based
Measurement label: Ki

• Cc1ccc(F)c(C2=NCCN2)c1 = > 10 µM
• CC1CC/C(=N/c2cccc3c2CCC3)N1.Cl (stereo not drawn) = > 10 µM
• Cc1c(Cl)cccc1/N=C1\CCC(C)N1.Cl (stereo not drawn) = > 10 µM
• Cc1ccc(/N=C2/CC(C)CN2)c2c1CCC2.Cl (stereo not drawn) = > 10 µM
• CC1CC/C(=N\c2cc(N=[N+]=[N-])c(I)cc2Cl)N1 (stereo not drawn) = > 2.24 µM
• NC1=NCC(COc2ccccc2Br)O1 (stereo not drawn) = > 10 µM
• Cc1cccc(/N=C2\CC(C)CN2)c1C.Cl (stereo not drawn) = 10 µM
• Cc1cccc(/N=C2\CCC(C)N2)c1C.Cl (stereo not drawn) = > 10 µM
• CC1CNC(Nc2c(Cl)cccc2Cl)=N1 (stereo not drawn) = > 1.949 µM
• Cc1c(Cl)cccc1/N=C1\CC(C)CN1.Cl (stereo not drawn) = > 10 µM
• C1COC(NC(C2CC2)C2CC2)=N1 = 0.18 µM
• CC1CC/C(=N/c2ccc(Cl)c3c2CCC3)N1.Cl (stereo not drawn) = > 10 µM
• CC1CC/C(=N/c2cccc3c2CCCC3)N1.Cl (stereo not drawn) = > 10 µM

Source of measurements: ChEMBL document CHEMBL3407341
